# System Tested: BCRP (ABCG2) (Homo sapiens)
# Sequence (Q9UNQ0 whole entry): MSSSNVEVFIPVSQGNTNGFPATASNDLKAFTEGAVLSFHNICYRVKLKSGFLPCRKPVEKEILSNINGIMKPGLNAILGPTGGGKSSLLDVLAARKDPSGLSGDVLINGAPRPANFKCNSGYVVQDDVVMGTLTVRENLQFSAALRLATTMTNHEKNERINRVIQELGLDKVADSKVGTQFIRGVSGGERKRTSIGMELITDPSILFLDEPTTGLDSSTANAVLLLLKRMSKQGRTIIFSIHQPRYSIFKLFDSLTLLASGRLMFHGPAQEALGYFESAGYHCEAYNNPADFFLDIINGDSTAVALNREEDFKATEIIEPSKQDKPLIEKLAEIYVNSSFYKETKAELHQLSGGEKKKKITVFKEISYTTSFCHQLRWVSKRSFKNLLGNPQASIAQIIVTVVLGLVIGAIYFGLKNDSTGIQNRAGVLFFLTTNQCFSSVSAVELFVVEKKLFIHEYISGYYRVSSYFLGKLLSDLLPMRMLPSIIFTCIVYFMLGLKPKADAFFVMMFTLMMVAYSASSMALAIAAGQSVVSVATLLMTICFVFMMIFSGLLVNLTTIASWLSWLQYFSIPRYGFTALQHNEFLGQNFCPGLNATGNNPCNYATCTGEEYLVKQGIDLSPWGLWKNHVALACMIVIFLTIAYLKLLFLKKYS
# Assay Notes: Substrate activity at BCRP (unknown origin) assessed as efflux ratio of permeability
# Type: ADME
# Assay Context: not told
Reported Endpoint: efflux ratio
The reply should be a number, written without any unit.

Look at this molecule and give its reported efflux ratio. `N#Cc1cc(S(=O)(=O)Nc2ccc(F)cn2)ccc1Oc1ccc(CO)c(Cl)c1`
34

###

# System Tested: UniProtKB Q96S37
# Sequence (Q96S37 whole entry): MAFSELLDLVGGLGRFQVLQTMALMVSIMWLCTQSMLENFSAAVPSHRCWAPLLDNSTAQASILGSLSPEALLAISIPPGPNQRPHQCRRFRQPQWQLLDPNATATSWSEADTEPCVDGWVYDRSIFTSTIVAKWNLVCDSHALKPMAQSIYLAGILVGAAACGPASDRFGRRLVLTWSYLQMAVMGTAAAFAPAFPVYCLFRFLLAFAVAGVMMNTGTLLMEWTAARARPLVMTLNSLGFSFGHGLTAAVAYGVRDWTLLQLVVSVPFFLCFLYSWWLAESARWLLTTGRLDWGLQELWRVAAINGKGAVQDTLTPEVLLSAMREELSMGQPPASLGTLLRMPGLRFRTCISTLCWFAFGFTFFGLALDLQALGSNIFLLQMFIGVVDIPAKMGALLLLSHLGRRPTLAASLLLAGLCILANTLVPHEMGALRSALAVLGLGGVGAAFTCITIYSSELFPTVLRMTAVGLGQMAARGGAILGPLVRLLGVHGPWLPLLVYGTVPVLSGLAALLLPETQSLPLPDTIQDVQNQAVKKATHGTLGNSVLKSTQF
# Assay Notes: Inhibition of URAT1 (unknown origin)
Measured IC50, listed per entry for reference.
The reply should contain only the number, in µM.

CC(C)(Sc1ccncc1-c1ccc(C#N)c2ccccc12)C(=O)O :: 0.023

Look at this compound and give its reported IC50. `CC(C)(Oc1ccc(C(=O)c2ccc(Cl)cc2)cc1)C(=O)O`
11

###

Measured IC50, listed per entry for reference.
# System Tested: Cytochrome P450 2C8 (Homo sapiens, UniProt P10632)
# Sequence (P10632 whole entry): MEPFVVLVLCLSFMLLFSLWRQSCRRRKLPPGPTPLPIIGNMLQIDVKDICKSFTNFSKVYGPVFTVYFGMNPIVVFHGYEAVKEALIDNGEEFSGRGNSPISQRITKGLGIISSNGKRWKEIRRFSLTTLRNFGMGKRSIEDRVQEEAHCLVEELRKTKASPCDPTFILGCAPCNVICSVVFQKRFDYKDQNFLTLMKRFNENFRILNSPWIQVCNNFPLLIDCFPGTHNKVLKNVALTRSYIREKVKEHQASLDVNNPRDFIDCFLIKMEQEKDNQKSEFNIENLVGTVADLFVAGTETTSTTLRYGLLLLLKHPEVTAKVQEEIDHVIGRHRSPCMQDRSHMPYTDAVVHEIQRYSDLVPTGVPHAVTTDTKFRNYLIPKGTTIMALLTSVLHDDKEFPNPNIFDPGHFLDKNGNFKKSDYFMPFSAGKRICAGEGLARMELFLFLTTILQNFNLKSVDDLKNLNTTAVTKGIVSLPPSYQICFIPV
The reply should contain only the number, in µM.

N#Cc1ccc(Oc2ccc(S(=O)(=O)Nc3ccc(F)cn3)cc2C#N)cc1Cl :: 11.9

Kindly consider the entry below.
Look at this compound and give its reported IC50. `N#Cc1cc(S(=O)(=O)Nc2ccc(F)cn2)ccc1Oc1ccc(CO)c(Cl)c1`
9.9

###

# Assay Notes: Oral bioavailability in rat at 2.3 mg/kg
# Format: ADME, organism-based
# Assay Context: in vivo
Reported Endpoint: bioavailability (%)
The reply should contain only the number, in %.

Look at this compound and give its reported bioavailability. `N#Cc1ccc(Oc2ccc(S(=O)(=O)Nc3ccc(F)cn3)cc2C#N)cc1Cl`
100

###

Measured hepatocyte CLint, listed per entry for reference.
# Assay Notes: Intrinsic clearance in rat hepatocytes assessed per 10^6 cells
# Type: ADME, cell-based, Hepatocyte
# Assay Context: read-out: CLH
The reply should contain only the number, in µL/min/1e6 cells.

N#Cc1ccc(Oc2ccc(S(=O)(=O)Nc3ccc(F)cn3)cc2C#N)cc1Cl :: 10

Kindly consider the entry below.
Look at this compound and give its reported hepatocyte CLint. `N#Cc1cc(S(=O)(=O)Nc2ccc(F)cn2)ccc1Oc1ccc(CO)c(Cl)c1`
82

###

# Assay Notes: Oral bioavailability in rat at 1 mg/kg
# Assay type: ADME, organism-based
# Assay Context: in vivo
Reported Endpoint: bioavailability (%)
The reply should contain only the number, in %.

N#Cc1cc(S(=O)(=O)Nc2ccc(F)cn2)ccc1Oc1ccc(CO)c(Cl)c1 :: 50

Kindly consider the entry below.
Look at this compound and give its reported bioavailability. `N#Cc1ccc(Oc2ccc(S(=O)(=O)Nc3ccc(F)cn3)cc2C#N)cc1Cl`
100

###

# Assay Notes: Inhibition of GABAA receptor (unknown origin)
# Parameters: species or system Homo sapiens
Reported Endpoint: Ki (µM)
The reply should contain only the number, in µM.

Look at this compound and give its reported Ki. `N#Cc1ccc(Oc2ccc(S(=O)(=O)Nc3ccc(F)cn3)cc2C#N)cc1Cl`
4.8

###

# Assay Notes: Oral bioavailability in rat at 3 mg/kg
# Type: ADME, organism-based
# Assay Context: in vivo
Reported Endpoint: bioavailability (%)
The reply should contain only the number, in %.

Look at this compound and give its reported bioavailability. `Nc1[nH]ncc1-c1cc(Cl)ccc1Oc1cc(F)c(S(=O)(=O)Nc2cscn2)cc1Cl`
27

###

# Assay Notes: Intrinsic clearance in dog hepatocytes assessed per 10^6 cells
# Type: ADME, cell-based, Canis lupus familiaris, Hepatocyte
# Assay Context: read-out: CLH
Measured hepatocyte CLint, listed per entry for reference.

N#Cc1ccc(Oc2ccc(S(=O)(=O)Nc3ccc(F)cn3)cc2C#N)cc1Cl :: < 6 µL/min/1e6 cells

Kindly consider the entry below.
Look at this molecule and give its reported hepatocyte CLint. `N#Cc1cc(S(=O)(=O)Nc2ccc(F)cn2)ccc1Oc1ccc(CO)c(Cl)c1`
< 6 µL/min/1e6 cells

###

# Assay Notes: Intrinsic clearance in human liver microsomes
# Type: ADME
# Assay Context: read-out: CLH
Measured microsomal CLint, listed per entry for reference.
The reply should contain only the number, in µL/min/mg.

Worked set:
N#Cc1cc(Oc2ccc(S(=O)(=O)Nc3ccc(F)cn3)cc2C#N)ccc1F :: 83
N#Cc1cc(S(=O)(=O)Nc2ccc(F)cn2)ccc1Oc1ccc(F)c(Cl)c1 :: 163
N#Cc1cccc(Oc2ccc(S(=O)(=O)Nc3ccc(F)cn3)cc2C#N)c1 :: 65

Kindly consider the entry below.
Look at this molecule and give its reported microsomal CLint. `N#Cc1cc(Oc2ccc(S(=O)(=O)Nc3ccc(F)cn3)cc2C#N)ccc1Cl`
134

###

# Assay Notes: Intrinsic clearance in rat liver microsomes
# Assay type: ADME
# Assay Context: read-out: CLH
Reported Endpoint: microsomal CLint

N#Cc1cc(S(=O)(=O)Nc2ccc(F)cn2)ccc1Oc1ccc(CO)c(Cl)c1 :: < 14 µL/min/mg

Look at this compound and give its reported microsomal CLint. `N#Cc1ccc(Oc2ccc(S(=O)(=O)Nc3ccc(F)cn3)cc2C#N)cc1Cl`
< 14 µL/min/mg

###

# Assay Notes: Toxicity in po dosed rat measured over 14 days
# Format: organism-based
# Assay Context: in vivo
Reported Endpoint: MTD at 336 h (mg/kg)
The reply should contain only the number, in mg/kg.

Look at this molecule and give its reported MTD at 336 h. `N#Cc1ccc(Oc2ccc(S(=O)(=O)Nc3ccc(F)cn3)cc2C#N)cc1Cl`
100

###

# Tested on: P-gp
# Assay Notes: Substrate activity at p-gp (unknown origin) assessed as efflux ratio of permeability
# Assay type: ADME
# Assay Context: human, not told
Reported Endpoint: efflux ratio

Can you look up efflux ratio on P-gp for `N#Cc1cc(S(=O)(=O)Nc2ccc(F)cn2)ccc1Oc1ccc(CO)c(Cl)c1` ?
1.9

###

# System Tested: UniProtKB P05177
# Sequence (P05177 whole entry): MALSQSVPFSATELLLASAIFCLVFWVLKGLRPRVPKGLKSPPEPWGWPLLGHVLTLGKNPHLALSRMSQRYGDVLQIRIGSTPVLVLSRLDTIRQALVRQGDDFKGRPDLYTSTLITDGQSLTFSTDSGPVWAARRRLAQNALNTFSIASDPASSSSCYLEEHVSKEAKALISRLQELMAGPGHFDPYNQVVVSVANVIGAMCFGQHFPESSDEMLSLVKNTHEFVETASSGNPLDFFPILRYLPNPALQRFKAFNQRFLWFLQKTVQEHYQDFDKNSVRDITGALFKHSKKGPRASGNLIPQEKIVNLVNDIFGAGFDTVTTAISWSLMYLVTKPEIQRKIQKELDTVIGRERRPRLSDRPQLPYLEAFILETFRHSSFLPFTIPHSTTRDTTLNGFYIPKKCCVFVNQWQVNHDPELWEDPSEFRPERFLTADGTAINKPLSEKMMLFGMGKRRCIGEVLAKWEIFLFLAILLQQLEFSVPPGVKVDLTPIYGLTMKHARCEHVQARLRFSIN
# Assay Notes: Inhibition of CYP1A2 (unknown origin)
# Type: ADME
pIC50: −log10 of the molar value.
Measured pIC50, listed per entry for reference.

N#Cc1cc(S(=O)(=O)Nc2ccc(F)cn2)ccc1Oc1ccc(CO)c(Cl)c1 :: < 4.52

Look at this compound and give its reported pIC50. `N#Cc1ccc(Oc2ccc(S(=O)(=O)Nc3ccc(F)cn3)cc2C#N)cc1Cl`
< 4.52
